Origin of the recorded values: PubChem BioAssay AID1963429

Tested on: 126254-015-R-J1-PDC complex spheroid growth, % test/control;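 also: spheroids exposed to compound for seven days; 100% = DMSO vehicle control wells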
Assay: Anticancer human tumor 126254-015-R-J1-PDC patient-derived soft tissue sarcoma cell line growth inhibition [Asc]
Details: second compound 0.1 µM; first compound 3 µM; stronger effect = lower value
Some compounds, each annotated with its measured viability, T/C.
Please give a number only; it is taken to be in %.

Example entries and their recorded answers appear below.
>  <Compound>
CCN1C(C(=O)NC23CCC(C(=O)O)(CC2)CC3)C(c2cccc(Cl)c2F)C2(C(=O)Nc3cc(Cl)ccc32)C12CCCCC2 (centres undefined) + Cc1c(S(C)(=O)=O)c(-c2cc(F)cc(N3CCN(c4ccc(NS(=O)(=O)c5ccc(NC(CCN6CCC(C(=O)OCCCP(=O)(O)O)CC6)CSc6ccccc6)c(S(=O)(=O)C(F)(F)F)c5)cc4)CC3)c2)c(-c2ccc(Cl)cc2)n1C(C)C

>  <viability, T/C [%]>
88.3

$$$$
>  <Compound>
CCN1C(C(=O)NC23CCC(C(=O)O)(CC2)CC3)C(c2cccc(Cl)c2F)C2(C(=O)Nc3cc(Cl)ccc32)C12CCCCC2 (centres undefined) + CNC(C)C(=O)NC1CN(S(=O)(=O)c2cccc(S(=O)(=O)N3CCC4CCC(C(=O)NC(c5ccccc5)c5ccccc5)N4C(=O)C(NC(=O)C(C)NC)C3)c2)CCC2CCC(C(=O)NC(c3ccccc3)c3ccccc3)N2C1=O

>  <viability, T/C [%]>
66.5

$$$$
>  <Compound>
Cc1nc(N2CCC3(CC2)COC(C)C3N)c(CO)nc1Sc1ccnc(N)c1Cl (centres undefined) + Cc1c(S(C)(=O)=O)c(-c2cc(F)cc(N3CCN(c4ccc(NS(=O)(=O)c5ccc(NC(CCN6CCC(C(=O)OCCCP(=O)(O)O)CC6)CSc6ccccc6)c(S(=O)(=O)C(F)(F)F)c5)cc4)CC3)c2)c(-c2ccc(Cl)cc2)n1C(C)C

>  <viability, T/C [%]>
34.4

$$$$

**Q:** So what's the measured viability, T/C for this one? Cc1nc(N2CCC3(CC2)COC(C)C3N)c(CO)nc1Sc1ccnc(N)c1Cl (centres undefined) + CNC(C)C(=O)NC1CN(S(=O)(=O)c2cccc(S(=O)(=O)N3CCC4CCC(C(=O)NC(c5ccccc5)c5ccccc5)N4C(=O)C(NC(=O)C(C)NC)C3)c2)CCC2CCC(C(=O)NC(c3ccccc3)c3ccccc3)N2C1=O
**A:** 35.5
